# Assay overview: NS1 protein of Zika virus - qHTS assay to identify small molecule inhibitors in human HEK 293 cells (AID 1347053); also: nearly all actives have a fitted effect of over 55% in size
# Measurement conditions: HEK293 ZIKV MR766 infection, NS1 TR-FRET, 24 h; series mostly up to 46.1 µM
Records with an inconclusive call do not appear. The source made the active and inactive calls. Calls follow the shape of the dose curve; as a rule, active = well fitted inhibition curve with a large enough effect; inconclusive = small, poorly fitted or top-dose-only effect; inactive = no such curve, though single readings can be large or run the other way.
Select the matching outcome among YES for active, NO for inactive

Consider the following illustrative entries.
Compound	Label class
NC(=O)c1cccc2cn(-c3ccc([C@@H]4CCCNC4)cc3)nc12	YES
Cc1cnc(-c2cnc(NCCNc3ccc(C#N)cn3)nc2-c2ccc(Cl)cc2Cl)[nH]1	NO
Nc1cccc(-c2cc3c(Oc4cccc(O)c4)ncnc3[nH]2)c1	NO
C[C@H]1C[C@@H]2[C@@H]([C@@H](O)C[C@@]3(C)[C@H]2CC[C@]3(O)C(=O)CO)[C@@]2(C)C=CC(=O)C=C12	NO
Cc1nc2ccc(CN(C)c3ccc(C(=O)N[C@@H](CCC(=O)O)C(=O)O)s3)cc2c(=O)[nH]1	NO

Please indicate how the test categorized O=c1[nH]nc(Sc2ncc([N+](=O)[O-])s2)n1-c1ccc2c(c1)OCCO2 .
YES

Please indicate how the test categorized CCC[C@H](NC(=O)C(C#N)=Cc1cccc(Br)n1)c1ccccc1 .
YES

Please indicate how the test categorized Nc1ccn([C@@H]2CS[C@H](CO)O2)c(=O)n1 .
NO

Please indicate how the test categorized COc1ccc(C(=O)CC2(O)C(=O)Nc3c(Cl)ccc(Cl)c32)cc1 (configuration not stated) .
YES

Please indicate how the test categorized CC(C)(C)OC(=O)Nc1ccc(-c2cc(C(=O)NCCCCCCC(=O)NO)no2)cc1 .
YES

Please indicate how the test categorized CC(C)c1ccc(Cn2ccc3c4c(N)nc(NC5CC5)nc4ccc32)cc1 .
YES

Please indicate how the test categorized O=C(NCCS(=O)(=O)c1ccc(C(F)(F)F)cn1)c1ccc(Cl)cc1 .
NO
